system: Mus musculus; assay: Survival of Plasmodium berghei GFP infected mice (Mus musculus) at 10 mg/kg, subcutaneous after single dose; format: functional
Catalogue of Survival readings, one per entry.

| molecule | Survival, days |
| --- | --- |
| C[C@H]1[C@@H](CC(C[C@H]2O[C@H]3O[C@@]4(C)CC[C@H]5[C@H](C)CC[C@@H]([C@H]2C)[C@@]35OO4)C(=O)NCc2ccccc2)O[C@@H]2O[C@@]3(C)CC[C@H]4[C@H](C)CC[C@@H]1[C@@]24OO3 (stereo partly drawn) | 15 |
| Cc1ccc(COCC(C[C@H]2O[C@@H]3O[C@@]4(C)CC[C@H]5[C@H](C)CC[C@@H]([C@H]2C)[C@@]35OO4)C[C@H]2O[C@@H]3O[C@@]4(C)CC[C@H]5[C@H](C)CC[C@@H]([C@H]2C)[C@@]35OO4)cc1 (stereo partly drawn) | 10 |
| C[C@H]1[C@@H](CC(O)(COCc2ccncc2)C[C@H]2O[C@@H]3O[C@@]4(C)CC[C@H]5[C@H](C)CC[C@@H]([C@H]2C)[C@@]35OO4)O[C@@H]2O[C@@]3(C)CC[C@H]4[C@H](C)CC[C@@H]1[C@@]24OO3 (stereo partly drawn) | 13.3 |
